Measured TL1A Binding Level (Early) accompanies every entry in the list below.
Molecular target: T1, human TL1A extracellular domain with N-terminal HIS and FLAG tag (human, UniProt O95150 72-251)
T1 construct: whole entry named. ~70 kDa fraction purified by gel filtration
T1 sequence: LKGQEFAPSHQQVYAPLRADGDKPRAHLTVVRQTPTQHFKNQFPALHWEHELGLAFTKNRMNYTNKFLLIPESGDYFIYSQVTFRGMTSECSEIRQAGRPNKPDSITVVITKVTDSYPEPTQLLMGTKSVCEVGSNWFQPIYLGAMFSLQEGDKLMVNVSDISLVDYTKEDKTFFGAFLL
Experiment: SPR run 2; supernatant on Protein A; TL1A 10 ug/mL; timepoint 44
measurement-label: TL1A Binding Level (Early) (RU)

>>> experimental_result("320-202 (antibody, human IgG1, name in Kabat numbering, V domains shown, human IgG1, lambda) VH: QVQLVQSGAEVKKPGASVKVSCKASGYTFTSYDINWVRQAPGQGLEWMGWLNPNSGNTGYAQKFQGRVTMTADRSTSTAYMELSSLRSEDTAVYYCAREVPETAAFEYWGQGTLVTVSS VL: QSVLTQPPSVSGAPGQRVTISCTQSSSDIGAGLGVHWYQQLPGTAPKLLIEGYYNRPSGVPDRFSGSKSGTSASLTITGLLPEDEGDYYCQSYDGTLSALFGGGTKLTVLG")
234
>>> experimental_result("320-236 (antibody, human IgG1, name in Kabat numbering, V domains shown, human IgG1, lambda) VH: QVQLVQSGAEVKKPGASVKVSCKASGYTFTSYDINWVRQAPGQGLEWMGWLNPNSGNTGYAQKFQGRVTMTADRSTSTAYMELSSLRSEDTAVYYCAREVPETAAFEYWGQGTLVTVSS VL: QSVLTQPPSVSGAPGQRVTISCTSSSSHIGAGLGVHWYQQLPGTAPKLLIEGYYNRPSGVPDRFSGSKSGTSASLTITGLLPEDEGDYYCQSYDGTLSALFGGGTKLTVLG")
254
>>> experimental_result("320-234 (antibody, human IgG1, name in Kabat numbering, V domains shown, human IgG1, lambda) VH: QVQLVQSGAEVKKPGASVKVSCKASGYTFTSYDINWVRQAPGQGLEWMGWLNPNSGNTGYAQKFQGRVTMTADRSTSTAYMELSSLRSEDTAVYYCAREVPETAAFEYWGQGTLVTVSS VL: QSVLTQPPSVSGAPGQRVTISCTSSSSSIGAGLGVHWYQQLPGTAPKLLIEGYYNRPSGVPDRFSGSKSGTSASLTITGLLPEDEGDYYCQSYDGTLSALFGGGTKLTVLG")
262
